test: A CellTox Green Cytotoxicity Assay to monitor cytotoxicity in HepG2 cells - 0 hour (AID 1224882); settings: CellTox Green fluorescence; series mostly up to 76.8 µM; further: nearly all actives have a fitted effect of over 35% in size
Activity calls are given as the source filed them. The call rests on the fitted dose curve; in most records, active means well fitted activation curve with a large enough effect in the repeat runs; inconclusive means weak or mixed curves; inactive means flat fitted curve, though single readings scatter.
Possible outcomes: active, inactive

MOLECULE	ASSIGNED_CLASS
O=CNNC=O	inactive
CC(C)Cc1ccc(CC(=O)O)cc1	active
O=C1c2ccccc2C(=O)c2c(O)ccc(O)c21	inactive
C[C@@H]1C[C@H]2[C@@H]3CCC4=CC(=O)C=C[C@]4(C)[C@@]3(F)[C@@H](O)C[C@]2(C)[C@@]1(O)C(=O)COP(=O)(O)O	inactive
Nc1nc2ccc(OC(F)(F)F)cc2s1	inactive
C=CCOC(=O)COCCC(C)C	inactive
CC(=O)OCC(C)C	inactive
CCCCCCCC/C=C/C(=O)O	inactive
CCOc1ncc(F)c(=O)[nH]1	inactive
COC(=O)CC(C(C)=O)C(=O)OC (centres undefined)	inactive
CCc1ccc(C)cc1	inactive
Nc1ccc(NC(=O)c2ccc(N)cc2)cc1	inactive
Cc1c[nH]c2ccccc12	inactive
CC(=O)OCC(=O)[C@@]1(OC(C)=O)[C@@H](C)C[C@H]2[C@@H]3C[C@H](F)C4=CC(=O)C=C[C@]4(C)[C@@]3(F)[C@@H](O)C[C@@]21C	inactive

====

experiment: A CellTox Green Cytotoxicity Assay to monitor cytotoxicity in HEK293 cells - 40 hour (AID 1224871); conditions: CellTox Green fluorescence; series mostly up to 76.8 µM; further: nearly all actives have a fitted effect of over 45% in size
Results filed as inconclusive are left out. The source made the active and inactive calls. Calls come from the whole dose curve; as a rule, active = well fitted activation curve with a large enough effect in the repeat runs; inconclusive = weak or mixed curves; inactive = flat fitted curve, though single readings scatter.
Outcome codes: active, inactive

COMPOUND	ASSIGNED_CLASS
CC(C)C(O)C(C)(C)CO (configuration not stated)	inactive
O=C(NC(Cc1cc(=O)[nH]c2ccccc12)C(=O)O)c1ccc(Cl)cc1 (configuration not stated)	inactive
O[C@@H](CNC[C@H](O)[C@H]1CCc2cc(F)ccc2O1)[C@@H]1CCc2cc(F)ccc2O1	active
Cc1cc(CCCOc2c(C)cc(-c3noc(C(F)(F)F)n3)cc2C)on1	inactive
CNc1c2c(nn1C)CCCC2	inactive
NC(=O)c1ccccc1[N+](=O)[O-]	inactive
O=C1[C@@H]2[C@H]3CC[C@H](C3)[C@@H]2C(=O)N1CCCCN1CCN(c2ncccn2)CC1	inactive
CC(C)(O)c1coc(S(=O)(=O)NC(=O)Nc2c3c(cc4c2CCC4)CCC3)c1	inactive
CC(=O)C(=O)CC(C)C	inactive
CC(C)C1CCC(C(=O)N[C@H](Cc2ccccc2)C(=O)O)CC1 (some centres not stated)	inactive
CCOc1ncc(F)c(=O)[nH]1	inactive
CC(C)CC(O)CC(C)C	inactive

====

assay: A CellTox Green Cytotoxicity Assay to monitor cytotoxicity in HEK293 cells - 8 hour (AID 1224884); details: CellTox Green fluorescence; series mostly up to 76.8 µM; further: nearly all actives have a fitted effect of over 35% in size
Inconclusive results are not listed. Activity calls are given as the source filed them. Calls come from the whole dose curve; as a rule, active = well fitted activation curve with a large enough effect in the repeat runs; inconclusive = weak or mixed curves; inactive = flat fitted curve, though single readings scatter.
Outcomes: 1 for active, 0 for inactive

COMPOUND	ASSIGNED_CLASS
Cc1cc([N+](=O)[O-])ccc1N	0
CCCCCCCC(=O)OCCCCCC	0
CN1CCCN(C(c2ccccc2)c2ccc(Cl)cc2)CC1 (configuration not stated)	0
Cc1cccc2sc(N)nc12	0
CC(C)(C)NCC(O)COc1cccc2c1C[C@H](O)[C@H](O)C2 (some centres not stated)	0
O[C@@H](CNC[C@H](O)[C@H]1CCc2cc(F)ccc2O1)[C@@H]1CCc2cc(F)ccc2O1	1
CC(C)(O)CCc1ccccc1	0
